Assayed system: RXRgamma (Mus musculus, UniProt P28705)
Construct: made in house; host or cells: insect cells infected with baculovirus expression vectors; nuclear extracts
Sequence (P28705 whole entry): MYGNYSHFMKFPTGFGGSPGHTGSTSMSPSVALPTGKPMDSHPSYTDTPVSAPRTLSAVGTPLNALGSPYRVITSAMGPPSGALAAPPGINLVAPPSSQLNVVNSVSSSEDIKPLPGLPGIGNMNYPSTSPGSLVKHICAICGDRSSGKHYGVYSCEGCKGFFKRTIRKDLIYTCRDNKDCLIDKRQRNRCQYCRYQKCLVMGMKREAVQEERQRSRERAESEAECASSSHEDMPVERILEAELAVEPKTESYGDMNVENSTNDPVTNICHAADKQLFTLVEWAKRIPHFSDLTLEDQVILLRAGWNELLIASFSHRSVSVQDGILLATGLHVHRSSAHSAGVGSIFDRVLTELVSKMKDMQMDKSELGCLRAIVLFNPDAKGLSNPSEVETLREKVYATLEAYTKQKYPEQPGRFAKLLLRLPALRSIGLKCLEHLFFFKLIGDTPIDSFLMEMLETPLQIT
Method summary: Nuclear RXR competition binding assay ([3H]-9-cis-RA, hydroxylapatite)
Parameters: species or system murine
Measurement context: TTNPB: at concentrations above 10^-6 M; 4-HPTTNPB and 4-HPR: at the highest concentration
Assay metric: competition with [3H]-9-cis-RA for binding to RXRgamma

[
  {
    "Compound": "C/C(=C\\c1ccc(C(=O)Nc2ccc(O)cc2)cc1)c1ccc2c(c1)C(C)(C)CCC2(C)C",
    "Endpoint result": "almost no competition"
  },
  {
    "Compound": "CC1=C(/C=C/C(C)=C/C=C/C(C)=C/C(=O)Nc2ccc(O)cc2)C(C)(C)CCC1 [4-HPR, N-(4-hydroxyphenyl) retinamide, reference compound]",
    "Endpoint result": "almost no competition"
  }
]
